Numbers sourced from patent US20210130436A1.

Target: T1, human CTLA4 on CHO cells (human, UniProt P16410 36-223)
T1 construct: whole, on cells; CHO cells stably expressing CTLA4; also called huCTLA4
T1 sequence (P16410 36-223): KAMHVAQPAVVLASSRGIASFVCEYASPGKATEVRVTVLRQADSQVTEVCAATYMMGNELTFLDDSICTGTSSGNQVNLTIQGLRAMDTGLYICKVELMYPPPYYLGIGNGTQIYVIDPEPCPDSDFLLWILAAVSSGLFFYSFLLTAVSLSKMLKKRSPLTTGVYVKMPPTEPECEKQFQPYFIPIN
Assay: flow cytometry, CHO/CTLA4 cells; MFI relative to WT CD80
The entries below are paired with their reported Fold change to WT CD80.
I only need the number, in fold, no unit after it.

binder="variant CD80 IgV-Fc E35D/M43I/D46E/A71G/L85M (Fc fusion, not shown: a dimerising Fc or GST) VIHVTKEVKEVATLSCGHNVSVEELAQTRIYWQKDKKMVLTMISGEMNIWPEYKNRTIFDITNNLSIVILGLRPSDEGTYECVVMKYEKDAFKREHLAEVTLSVKAD" measured_endpoint="Fold change to WT CD80" measurement=14
binder="variant CD80 IgV-Fc E35D/T41S/N48I (Fc fusion, not shown: a dimerising Fc or GST, also called E35D/T41S/N48T) VIHVTKEVKEVATLSCGHNVSVEELAQTRIYWQKDKKMVLSMMSGDMTIWPEYKNRTIFDITNNLSIVILALRPSDEGTYECVVLKYEKDAFKREHLAEVTLSVKAD" measured_endpoint="Fold change to WT CD80" measurement=15.8
binder="variant CD80 IgV-Fc E35D/D46E/M47I (Fc fusion, not shown: a dimerising Fc or GST) VIHVTKEVKEVATLSCGHNVSVEELAQTRIYWQKDKKMVLTMMSGEINIWPEYKNRTIFDITNNLSIVILALRPSDEGTYECVVLKYEKDAFKREHLAEVTLSVKAD" measured_endpoint="Fold change to WT CD80" measurement=11.2
binder="variant CD80 IgV-Fc E35D/D46E/L85M (Fc fusion, not shown: a dimerising Fc or GST) VIHVTKEVKEVATLSCGHNVSVEELAQTRIYWQKDKKMVLTMMSGEMNIWPEYKNRTIFDITNNLSIVILALRPSDEGTYECVVMKYEKDAFKREHLAEVTLSVKAD" measured_endpoint="Fold change to WT CD80" measurement=15.8
binder="variant CD80 IgV-Fc Q27H/E35D/M47I (Fc fusion, not shown: a dimerising Fc or GST) VIHVTKEVKEVATLSCGHNVSVEELAHTRIYWQKDKKMVLTMMSGDINIWPEYKNRTIFDITNNLSIVILALRPSDEGTYECVVLKYEKDAFKREHLAEVTLSVKAD" measured_endpoint="Fold change to WT CD80" measurement=14.4

Read off the recorded Fold change to WT CD80 for variant CD80 IgV-Fc H18Y/E35D/M47L/A71G/A91S (Fc fusion, not shown: a dimerising Fc or GST) VIHVTKEVKEVATLSCGYNVSVEELAQTRIYWQKDKKMVLTMMSGDLNIWPEYKNRTIFDITNNLSIVILGLRPSDEGTYECVVLKYEKDSFKREHLAEVTLSVKAD
12.6

# return recorded Fold change to WT CD80 for input variant CD80 IgV-Fc D46V/M47I/A71G (Fc fusion, not shown: a dimerising Fc or GST) VIHVTKEVKEVATLSCGHNVSVEELAQTRIYWQKEKKMVLTMMSGVINIWPEYKNRTIFDITNNLSIVILGLRPSDEGTYECVVLKYEKDAFKREHLAEVTLSVKAD
14.8

Report measured Fold change to WT CD80; entry is variant CD80 IgV-Fc Q27L/E35D/M47V/I61V/L85M (Fc fusion, not shown: a dimerising Fc or GST) VIHVTKEVKEVATLSCGHNVSVEELALTRIYWQKDKKMVLTMMSGDVNIWPEYKNRTIFDVTNNLSIVILALRPSDEGTYECVVMKYEKDAFKREHLAEVTLSVKAD
14.6
